Molecular target: UniProtKB P07949
Sequence (P07949 whole entry): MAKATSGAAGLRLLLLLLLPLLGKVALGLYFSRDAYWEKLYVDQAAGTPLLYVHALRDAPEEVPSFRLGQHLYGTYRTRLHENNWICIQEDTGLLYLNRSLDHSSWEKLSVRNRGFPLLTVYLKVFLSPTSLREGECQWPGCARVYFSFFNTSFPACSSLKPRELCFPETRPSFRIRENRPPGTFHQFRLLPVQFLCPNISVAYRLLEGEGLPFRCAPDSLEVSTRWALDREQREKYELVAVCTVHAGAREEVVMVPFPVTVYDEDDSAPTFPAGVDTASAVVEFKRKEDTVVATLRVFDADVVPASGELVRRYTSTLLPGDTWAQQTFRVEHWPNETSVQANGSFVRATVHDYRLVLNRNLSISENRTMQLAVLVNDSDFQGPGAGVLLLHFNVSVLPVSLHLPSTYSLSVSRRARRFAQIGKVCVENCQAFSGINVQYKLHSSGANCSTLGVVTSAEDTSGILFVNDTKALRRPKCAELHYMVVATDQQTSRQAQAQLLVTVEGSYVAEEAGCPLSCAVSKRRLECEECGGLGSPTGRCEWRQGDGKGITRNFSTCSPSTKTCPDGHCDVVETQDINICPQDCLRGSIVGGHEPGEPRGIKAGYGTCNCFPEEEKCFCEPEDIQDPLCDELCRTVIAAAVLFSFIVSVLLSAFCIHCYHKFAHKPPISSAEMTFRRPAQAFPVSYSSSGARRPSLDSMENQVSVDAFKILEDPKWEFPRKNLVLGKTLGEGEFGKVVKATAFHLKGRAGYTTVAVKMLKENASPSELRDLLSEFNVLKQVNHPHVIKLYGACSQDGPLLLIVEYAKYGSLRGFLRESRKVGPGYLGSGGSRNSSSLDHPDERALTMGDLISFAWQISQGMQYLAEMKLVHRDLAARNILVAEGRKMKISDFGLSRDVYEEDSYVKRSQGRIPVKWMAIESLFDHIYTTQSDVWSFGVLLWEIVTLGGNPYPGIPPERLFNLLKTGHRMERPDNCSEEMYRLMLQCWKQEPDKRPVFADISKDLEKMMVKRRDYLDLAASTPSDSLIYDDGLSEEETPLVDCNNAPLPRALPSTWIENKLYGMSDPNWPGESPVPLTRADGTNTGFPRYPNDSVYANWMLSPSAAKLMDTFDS
The source made the active and inactive calls.
Select the matching outcome among TRUE = active, FALSE = inactive

[in] For this compound, state the assay outcome: C=CC(=O)Nc1cc(Nc2nccc(-c3cn(C)c4ccccc34)n2)c(OC)cc1N(C)CCN(C)C
[out] FALSE

[in] For this compound, state the assay outcome: Cc1cc(-c2cc(OC(=O)c3ccccc3)ccc2Cl)cc2nnc(Nc3ccc(OCCN4CCCC4)cc3)nc12
[out] TRUE

[in] For this compound, state the assay outcome: O=C(Nc1ccc(OC(F)(F)F)cc1)c1sccc1NCc1ccnc2ccccc12
[out] TRUE

[in] For this compound, state the assay outcome: O=C(NOC[C@H](O)CO)c1ccc(F)c(F)c1Nc1ccc(I)cc1F
[out] FALSE

[in] For this compound, state the assay outcome: COc1cccc2cc(-c3nc([C@H]4CC[C@H](C(=O)O)CC4)n4ncnc(N)c34)[nH]c12
[out] TRUE

[in] For this compound, state the assay outcome: CNC(=O)c1ccc(Nc2ncc(C(F)(F)F)c(NCc3nccnc3N(C)S(C)(=O)=O)n2)cc1
[out] TRUE

[in] For this compound, state the assay outcome: CNC(=O)c1cc(COc2nnc(Nc3ccc(Cl)cc3)c3ccoc23)ccn1
[out] FALSE

[in] For this compound, state the assay outcome: S=C(NCc1ccc2c(c1)OCO2)N1CCN(c2ncnc3c2oc2ccccc23)CC1
[out] FALSE

* * *

Calls of active or inactive are those of the source.
What follows is a record of Kd for Cyclin-dependent kinase 6 (Homo sapiens, UniProt Q00534).

[in] Given C=CCN(/C=C1/C(=O)O[C@H](COC)[C@@]2(C)C1=C(O)C(=O)C1=C2[C@H](OC(C)=O)C[C@]2(C)C(=O)CC[C@@H]12)CC=C , respond with its Kd.
[out] > 30 µM (inactive)

[in] Given CCc1cc2c(cc1N1CCC(N3CCOCC3)CC1)C(C)(C)c1[nH]c3cc(C#N)ccc3c1C2=O , respond with its Kd.
[out] > 30 µM (inactive)

[in] Given O[C@H]1CC[C@H](Nc2ncc3nc(Nc4c(F)cc(F)cc4F)n([C@H]4CCOC4)c3n2)CC1 , respond with its Kd.
[out] > 30 µM (inactive)

[in] Given COc1cccc2cc(-c3nc([C@H]4CC[C@H](C(=O)O)CC4)n4ncnc(N)c34)[nH]c12 , respond with its Kd.
[out] > 30 µM (inactive)

[in] Given C=CCn1c(=O)c2cnc(Nc3ccc(N4CCN(C)CC4)cc3)nc2n1-c1cccc(C(C)(C)O)n1 , respond with its Kd.
[out] > 30 µM (inactive)

[in] Given COc1cc(F)c(F)c(Nc2ccc(I)cc2F)c1NS(=O)(=O)C1(C[C@H](O)CO)CC1 , respond with its Kd.
[out] > 30 µM (inactive)

[in] Given Cn1c(=O)n(-c2ccc(C(C)(C)C#N)cc2)c2c3cc(-c4cnc5ccccc5c4)ccc3ncc21 , respond with its Kd.
[out] > 30 µM (inactive)

[in] Given O=C(Nc1ccc(OC(F)(F)F)cc1)c1sccc1NCc1ccnc2ccccc12 , respond with its Kd.
[out] > 30 µM (inactive)

[in] Given C[C@@H]1COC(Nc2ccc3ncnc(Nc4ccc(OCc5nccs5)c(Cl)c4)c3c2)=N1 , respond with its Kd.
[out] > 30 µM (inactive)

[in] Given Cn1cnc2c(F)c(Nc3ccc(Br)cc3Cl)c(C(=O)NOCCO)cc21 , respond with its Kd.
[out] > 30 µM (inactive)

[in] Given COc1cc2ncnc(Nc3ccc(O)cc3)c2cc1OC , respond with its Kd.
[out] > 30 µM (inactive)

[in] Given CCc1nc(C(N)=O)c(Nc2ccc(N3CCC(N4CCN(C)CC4)CC3)c(OC)c2)nc1NC1CCOCC1 , respond with its Kd.
[out] > 30 µM (inactive)

[in] Given O=S(=O)(c1cccc2c(O)nccc12)N1CCCNCC1 [HYDROXYFASUDIL] , respond with its Kd.
[out] > 30 µM (inactive)

[in] Given C=CC(=O)Nc1cc(Nc2nccc(-c3cn(C)c4ccccc34)n2)c(OC)cc1N(C)CCN(C)C , respond with its Kd.
[out] > 30 µM (inactive)

[in] Given C#Cc1cccc(Nc2ncnc3cc4c(cc23)OCCOCCOCCO4)c1 , respond with its Kd.
[out] > 30 µM (inactive)

[in] Given CCN(CCCOc1ccc2c(Nc3cc(CC(=O)Nc4cccc(F)c4)n[nH]3)ncnc2c1)CCOP(=O)(O)O , respond with its Kd.
[out] > 30 µM (inactive)
